molecular target: recombinant human CETP protein (Homo sapiens (Human)); assay: Test of CETP inhibition activity (in vitro, buffer-based); conditions: reconstituted HDL with [14C]-labeled cholesteryl ester, acceptor lipoprotein, 37° C.
Sequence (P11597 18-493): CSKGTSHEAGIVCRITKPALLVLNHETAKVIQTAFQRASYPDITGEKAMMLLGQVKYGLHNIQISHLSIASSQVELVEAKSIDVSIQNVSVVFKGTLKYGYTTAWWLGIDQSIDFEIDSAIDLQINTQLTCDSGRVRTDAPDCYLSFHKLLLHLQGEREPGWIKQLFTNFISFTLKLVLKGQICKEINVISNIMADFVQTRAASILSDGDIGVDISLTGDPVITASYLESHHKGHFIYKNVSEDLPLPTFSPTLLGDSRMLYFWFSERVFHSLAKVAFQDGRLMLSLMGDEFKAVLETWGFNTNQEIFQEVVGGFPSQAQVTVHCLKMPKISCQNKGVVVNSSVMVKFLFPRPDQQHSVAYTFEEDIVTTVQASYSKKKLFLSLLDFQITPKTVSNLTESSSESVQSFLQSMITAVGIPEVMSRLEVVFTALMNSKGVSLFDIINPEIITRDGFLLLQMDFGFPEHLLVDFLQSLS
Below, each of the compounds is paired with its reported IC50 value.

Examples from the recorded data:
[[record]]
compound = "CC1(C)Cc2nc(C3CCN(c4ncc(C#N)cn4)CC3)c([C@@H](F)c3ccc(C(F)(F)F)cc3)c(C3CCC(F)(F)CC3)c2[C@@H](O)C1 (single isomer, unassigned)"
value = "217 nM"

[[record]]
compound = "CC(C)(O)CCOc1cnc(N2CCC(c3nc4c(c(C5CCC(F)(F)CC5)c3[C@@H](F)c3ccc(C(F)(F)F)cc3)[C@@H](O)CC(C)(C)C4)CC2)nc1 (single isomer, unassigned)"
value = "9 nM"

[[record]]
compound = "CC1(C)Cc2nc(C3CCN(c4ncc(OCC(CO)CO)cn4)CC3)c([C@@H](F)c3ccc(C(F)(F)F)cc3)c(C3CCC(F)(F)CC3)c2[C@@H](O)C1 (single isomer, unassigned)"
value = "8 nM"

[[record]]
compound = "CC(C)COCc1cnc(N2CCC(c3nc4c(c(C5CCC(F)(F)CC5)c3[C@@H](F)c3ccc(C(F)(F)F)cc3)[C@@H](O)CC(C)(C)C4)CC2)nc1 (single isomer, unassigned)"
value = "62 nM"


// query What IC50 value was documented for this compound, CC1(C)Cc2nc(C3CCN(c4ncc(N5CC[C@H](O)C5)cn4)CC3)c([C@@H](F)c3ccc(C(F)(F)F)cc3)c(C3CCC(F)(F)CC3)c2[C@@H](O)C1 (single isomer, unassigned) ?
// result 33 nM

// query What IC50 value was documented for this compound, CC1(C)Cc2nc(C3CCN(c4ncc(OC[C@H](O)CO)cn4)CC3)c([C@@H](F)c3ccc(C(F)(F)F)cc3)c(C3CCC(F)(F)CC3)c2[C@@H](O)C1 (single isomer, unassigned) ?
// result 11 nM

// query What IC50 value was documented for this compound, CN(C)C(=O)c1cnc(N2CCC(c3nc4c(c(C5CCC(F)(F)CC5)c3[C@@H](F)c3ccc(C(F)(F)F)cc3)[C@@H](O)CC(C)(C)C4)CC2)nc1 (single isomer, unassigned) ?
// result 29 nM

// query What IC50 value was documented for this compound, CN(CCO)Cc1cnc(N2CCC(c3nc4c(c(C5CCC(F)(F)CC5)c3[C@@H](F)c3ccc(C(F)(F)F)cc3)[C@@H](O)CC(C)(C)C4)CC2)nc1 (single isomer, unassigned) ?
// result 35 nM

// query What IC50 value was documented for this compound, CC1(C)Cc2nc(C3CCN(c4ncc(OCC(C)(CO)CO)cn4)CC3)c([C@@H](F)c3ccc(C(F)(F)F)cc3)c(C3CCC(F)(F)CC3)c2[C@@H](O)C1 (single isomer, unassigned) ?
// result 13 nM

// query What IC50 value was documented for this compound, COCc1cnc(N2CCC(c3nc4c(c(C5CCC(F)(F)CC5)c3[C@@H](F)c3ccc(C(F)(F)F)cc3)[C@@H](O)CC(C)(C)C4)CC2)nc1 (single isomer, unassigned) ?
// result 40 nM

// query What IC50 value was documented for this compound, CC1(C)Cc2nc(C3CCN(c4ncc(O)cn4)CC3)c([C@@H](F)c3ccc(C(F)(F)F)cc3)c(C3CCC(F)(F)CC3)c2[C@@H](O)C1 (single isomer, unassigned) ?
// result 73 nM
